Experiment: in vitro
Conditions: PAMPA, pH 7.4
Description: Permeability of the compound at pH 7.4 measured after 6 hrs by PAMPA method
Can you tell me Papp at 6 h for the items I'm about to list?
Please answer using a numeric value trailed by its unit.

Known Papp at 6 h results, listed for orientation:
- molecule: "COc1ccc2cc3[n+](cc2c1OC(C)c1ccccc1)CCc1cc2c(cc1-3)OCO2.[Br-] (configuration not stated)"
  readout-type: "Papp at 6 h"
  assay-result: "0.4 ×10⁻⁶ cm/s"
- molecule: "COc1ccc2cc3[n+](cc2c1OCc1cccc([N+](=O)[O-])c1)CCc1cc2c(cc1-3)OCO2.[Br-]"
  readout-type: "Papp at 6 h"
  assay-result: "1.2 ×10⁻⁶ cm/s"
- molecule: "COc1ccc(COc2c(OC)ccc3cc4[n+](cc23)CCc2cc3c(cc2-4)OCO3)cc1.[Br-]"
  readout-type: "Papp at 6 h"
  assay-result: "4.8 ×10⁻⁶ cm/s"
- molecule: "COc1ccc2cc3[n+](cc2c1OCc1ccc(C)cc1)CCc1cc2c(cc1-3)OCO2.[Br-]"
  readout-type: "Papp at 6 h"
  assay-result: "0.8 ×10⁻⁶ cm/s"
- molecule: "COc1ccc2cc3[n+](cc2c1OC)CCc1cc2c(cc1-3)OCO2.[Cl-] [BERBERINE CHLORIDE]"
  readout-type: "Papp at 6 h"
  assay-result: "0.2 ×10⁻⁶ cm/s"

Would you be so kind as to report Papp at 6 h for each listed record?
1. COc1ccc2cc3[n+](cc2c1OCc1ccc2ccccc2c1)CCc1cc2c(cc1-3)OCO2.[Br-]
2. Nc1c2c(nc3ccccc13)CCCC2
3. COc1ccc2cc3[n+](cc2c1OCc1ccc(Br)cc1)CCc1cc2c(cc1-3)OCO2.[Br-]
4. CO/N=C(\C(=O)N[C@@H]1C(=O)N2C(C(=O)O)=C(COC(N)=O)CS[C@H]12)c1ccco1

Ans:
["0.8 ×10⁻⁶ cm/s", "6 ×10⁻⁶ cm/s", "0.6 ×10⁻⁶ cm/s", "0.3 ×10⁻⁶ cm/s"]
